Ref: ChEMBL document CHEMBL5303304

- Tested on: HEK-293T
- Test Protocol: Incucyte cell viability with HEK293T; note: unitless GR value; below 1 slowed growth and below 0 cell loss
- Assay type: toxicity, cell-based
- Condition Label: human, 24 h, 10 µM, compound concentration 10 uM, replicate number 2
Quantity Kind: Growth Rate
One number for each entry.

These recorded examples may help you get a feel for the data.
- C=CC(=O)Nc1cc(-c2nn(C3CCC(N4CCN(C(C)=O)CC4)CC3)c3ncnc(N)c23)ccc1Oc1ccccc1 (stereo not drawn): 0.09
- O=C(Nc1cc(C(F)(F)F)cc(C(F)(F)F)c1)c1cc(Cl)ccc1O: 0.36
- C=CC(=O)Nc1ccc2[nH]c(=O)n(C3CCN(Cc4ccc(-c5ccc6c(c5)NC(=O)CO6)cc4)CC3)c2c1: 0.42
- CCC(C(=O)Nc1ccc(-c2cc3ccccc3s2)c(C(N)=O)c1)c1nccs1 (stereo not drawn): 0.71
- CC(C)(O)c1cnc(N2C[C@@]3(CCC[C@](C)(Cn4cnc5ccc(C#N)cc54)C3)OC2=O)cn1: 0.45

Please state Growth Rate for every molecule in the list that follows.
1. Cl.Cl.Nc1nccc(-c2c(-c3ccc(F)cc3)ncn2C2CCCCC2)n1
2. CC[N+](CC)(CC)CCOc1ccc(/C=C/c2ccccc2)cc1.[I-] [STILONIUM IODIDE]
3. CCO[C@H](COc1ccc(C(F)(F)F)cc1)CSc1ccc(OCC(=O)[O-])c(C)c1.[Na+]
4. CN(CCCCCCC1=C(c2cc(F)cc(F)c2)CCCc2cc(O)ccc21)CCCCS(=O)(=O)CCCC(F)(F)F
5. Cn1c(C2(NC(=O)c3ccc4c(C5CCCC5)c(-c5ncc(Br)cn5)n(C)c4c3)CCC2)nc2ccc(/C=C/C(=O)[O-])cc21.[Na+] [DELEOBUVIR SODIUM]
6. CC(C1CC2CCC1C2)n1c(S)nnc1-c1ccco1 (stereo not drawn)
7. CC(C)S(=O)(=O)c1ccccc1Nc1nc(N[C@@H]2CCCN(CCCCCCCNC(=O)COc3cccc4c3C(=O)N(C3CCC(=O)NC3=O)C4=O)C2)ncc1Cl (stereo partly drawn)
8. COc1cc(C(=O)NCCOCCOCCOCC(=O)N[C@H](C(=O)N2C[C@H](O)C[C@H]2C(=O)NCc2ccc(-c3scnc3C)cc2)C(C)(C)C)ccc1Nc1ncc(C(F)(F)F)c(Oc2cccc3c2C(=O)CC3)n1

[0.51, -0.15, 0.68, -0.38, 0.8, 0.81, -0.38, -0.02]

Please state Growth Rate for every molecule in the list that follows.
1. CCn1ccc(Nc2ncc3c(n2)-c2c(nn(C)c2-c2ccc(-c4cnn(C)c4)cc2Cl)CC3)n1
2. CC(=O)N(CCN(C)C)c1ccc(N/C(=C2\C(=O)Nc3cc(Cl)ccc32)c2ccccc2)cn1
3. CC(=O)Nc1nc(C)c(S(=O)(=O)Nc2ccc(C(O)(C(F)(F)F)C(F)(F)F)cc2)s1
4. O=C(O)c1ccc(OCCCc2ccc(OCCCCOC3CCCCC3)cc2)c(C(=O)NC2CCCC(C(=O)O)C2)c1 (stereo not drawn)
5. CN[C@@H](C)C(=O)N[C@H](C(=O)N1CCC[C@H]1C(=O)N[C@H]1c2ccccc2C[C@H]1OCC#CC#CCO[C@@H]1Cc2ccccc2[C@@H]1NC(=O)[C@@H]1CCCN1C(=O)[C@@H](NC(=O)[C@H](C)NC)C1CCCCC1)C1CCCCC1

-0.33
-0.42
0.78
0.92
0.02
